test_system: T1, murine serum albumin (mouse, UniProt P07724 25-608)
T1 construct: also called MuSA; mouse serum albumin
T1 sequence (P07724 25-608 limits assumed): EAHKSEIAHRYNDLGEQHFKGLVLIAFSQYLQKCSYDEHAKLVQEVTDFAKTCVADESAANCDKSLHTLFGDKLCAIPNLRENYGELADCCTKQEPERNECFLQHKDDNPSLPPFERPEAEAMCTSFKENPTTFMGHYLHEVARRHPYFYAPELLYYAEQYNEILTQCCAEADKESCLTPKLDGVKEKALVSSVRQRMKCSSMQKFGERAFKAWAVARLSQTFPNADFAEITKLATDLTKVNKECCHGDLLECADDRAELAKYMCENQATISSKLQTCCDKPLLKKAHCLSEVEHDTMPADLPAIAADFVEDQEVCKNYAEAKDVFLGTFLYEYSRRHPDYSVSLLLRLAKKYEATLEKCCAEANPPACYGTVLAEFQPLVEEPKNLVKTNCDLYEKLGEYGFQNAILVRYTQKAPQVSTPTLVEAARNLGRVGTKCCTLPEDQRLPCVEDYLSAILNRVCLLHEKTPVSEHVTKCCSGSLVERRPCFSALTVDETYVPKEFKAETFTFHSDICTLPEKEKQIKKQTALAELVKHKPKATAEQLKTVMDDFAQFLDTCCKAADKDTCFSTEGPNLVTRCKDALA
method_notes: SPR (Biacore), albumin immobilized on CM5 chip
recorded_endpoint: binding result

[[record]]
binder = "SABA3.1 (designed binder, His6-tagged Adnectin core 3) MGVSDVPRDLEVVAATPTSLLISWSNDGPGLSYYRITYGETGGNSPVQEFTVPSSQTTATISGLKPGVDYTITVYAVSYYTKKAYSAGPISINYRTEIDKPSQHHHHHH"
test_result = "no binding"

[[record]]
binder = "SABA4.1 (designed binder, His6-tagged Adnectin core 4; has a scaffold mutation; the scaffold-perfect version is SABA5) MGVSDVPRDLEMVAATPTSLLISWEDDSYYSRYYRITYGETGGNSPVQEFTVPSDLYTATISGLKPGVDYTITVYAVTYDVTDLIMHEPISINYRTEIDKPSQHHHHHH"
test_result = "no binding"

